Assignment: determine reported log10(Ki) for the given compounds.
- assay system: human NK2 receptor (Homo sapiens, UniProt P21452)
- Sequence (P21452 whole entry): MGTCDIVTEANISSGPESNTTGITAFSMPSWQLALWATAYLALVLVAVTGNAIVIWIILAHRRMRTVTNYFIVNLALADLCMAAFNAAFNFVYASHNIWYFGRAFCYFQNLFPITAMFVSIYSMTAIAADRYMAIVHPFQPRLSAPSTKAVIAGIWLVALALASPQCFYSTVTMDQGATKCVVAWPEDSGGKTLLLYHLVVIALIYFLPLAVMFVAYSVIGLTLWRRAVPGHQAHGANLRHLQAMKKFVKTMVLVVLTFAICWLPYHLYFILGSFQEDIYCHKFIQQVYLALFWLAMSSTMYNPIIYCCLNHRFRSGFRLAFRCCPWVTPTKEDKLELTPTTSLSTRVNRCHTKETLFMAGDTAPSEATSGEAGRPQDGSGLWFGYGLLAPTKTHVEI
- method summary: [3H]SR48968 competition binding assay
- test context: [3H]SR48968 displacement, membranes of CHO cells stably expressing recombinant human NK2 receptor; Ki from IC50 by Cheng-Prussoff
All values: base-10 log of Ki in nM.

Worked cases, log10(Ki) given:
# compound, log10(Ki)
data = [
    ("COc1ccc(C(=O)N(C)[C@@H]2CN(C(=O)c3ccc(C(F)(F)F)cc3)C[C@H]2c2ccc(Cl)c(Cl)c2)cc1C(F)(F)F (racemic) [Example 50]", 0.80),
    ("COc1ccc(C(=O)N(C)[C@@H]2CN(C(=O)c3ccc(C#N)cc3)C[C@H]2c2ccc(Cl)c(Cl)c2)cn1 (racemic) [Example 86]", 1.25),
    ("CN(C(=O)Cc1ccc(F)cc1)[C@H]1CN(C(=O)c2ccc(N3CCOCC3)cc2)C[C@@H]1c1ccc(Cl)c(Cl)c1 (racemic) [Example 134]", 1.72),
]

Below are some compounds; for each one, tell me its log10(Ki).
1. COc1ccc(C(=O)N(C)[C@@H]2CN(C(=O)c3ccc(OC(F)(F)F)cc3)C[C@H]2c2ccc(Cl)c(Cl)c2)cc1C(F)(F)F (racemic) [Example 53]
2. COc1ccc(C(=O)N(C)[C@H]2CN(C(=O)C3CCN(CCC(F)(F)F)CC3)C[C@@H]2c2ccc(Cl)c(Cl)c2)cc1C(F)(F)F (racemic) [Example 139]
3. CN(C(=O)c1ccc(Cl)c(C(F)(F)F)c1)[C@H]1CN(C(=O)C2CCN(CC3CC3)CC2)C[C@@H]1c1ccc(Cl)c(Cl)c1 [Example 168]

1. 0.46
2. -0.22
3. -0.40

---

- assay system: human NK2 receptor (Homo sapiens, UniProt P21452)
- method summary: [3H]SR48968 competition binding assay
- test context: [3H]SR48968 displacement, membranes of CHO cells stably expressing recombinant human NK2 receptor; Ki from IC50 by Cheng-Prussoff
Each record is given True if its reported Ki is strictly below 2 nM. Records at or above 2 nM are given False.

# molecule, qualitative label
measured = [
    ("COc1ccc(C(=O)N(C)[C@H]2CN(C(=O)C3CCN(CCCS(C)(=O)=O)CC3)C[C@@H]2c2ccc(Cl)cc2)cc1C(F)(F)F (racemic)", "True"),
    ("CN(C(=O)CC1CCCC1)[C@H]1CN(C(=O)C2CCN(C(=O)C3(C)CC3)CC2)C[C@@H]1c1ccc(Cl)c(Cl)c1 (racemic)", "False"),
    ("COc1ccc(C(=O)N(C)[C@@H]2CN(C(=O)N3CCN(S(C)(=O)=O)[C@H](C)C3)C[C@H]2c2ccc(Cl)c(Cl)c2)cc1C(F)(F)F", "False"),
    ("CN(C(=O)c1ccc(F)c(C#N)c1)[C@H]1CN(C(=O)C2CCN(C(=O)C3(C)CC3)CC2)C[C@@H]1c1ccc(Cl)c(Cl)c1 (racemic)", "True"),
    ("CN(C(=O)Cc1ccc(F)cc1)[C@H]1CN(C(=O)C2CCN(C(=O)C3(C)CC3)CC2)C[C@@H]1c1ccc(Cl)c(Cl)c1 [Example 118]", "False"),
]

Dear reviewer, please state whether COc1nc(C(=O)N(C)[C@@H]2CN(C(=O)c3ccc(C#N)cc3)C[C@H]2c2ccc(Cl)c(Cl)c2)ccc1C#N (racemic) has Ki strictly beneath 2 nM.
False

Determine whether this molecule shows Ki lower than 2 nM (ties excluded): CN(C(=O)c1ccc(Cl)c(C(F)(F)F)c1)[C@H]1CN(C(=O)C2CCN(C3CCOCC3)CC2)C[C@@H]1c1ccc(Cl)cc1 (racemic)
True

---

- assay system: human NK2 receptor (Homo sapiens, UniProt P21452)
- method summary: [3H]SR48968 competition binding assay
- test context: [3H]SR48968 displacement, membranes of CHO cells stably expressing recombinant human NK2 receptor; Ki from IC50 by Cheng-Prussoff
test readout: pKi
Give bare numbers, as −log10 of the molar value.

Previously resolved entries follow.
# compound, assay system, pKi
rows = [
    ("CN(C(=O)Cc1ccc(F)cc1)[C@H]1CN(C(=O)c2ccc(N3CCOCC3)nc2)C[C@@H]1c1ccc(Cl)c(Cl)c1 (racemic) [Example 135]", "human NK2 receptor (Homo sapiens, UniProt P21452)", 7.07),
    ("CN(C(=O)Cc1ccc(F)c(F)c1)[C@H]1CN(C(=O)C2CCN(CC3CC3)CC2)C[C@@H]1c1ccc(Cl)c(Cl)c1 (racemic) [Example 150]", "human NK2 receptor (Homo sapiens, UniProt P21452)", 7.70),
    ("Cc1ccnc(C(=O)N(C)[C@@H]2CN(C(=O)c3ccc(C#N)cc3)C[C@H]2c2ccc(Cl)c(Cl)c2)c1 (racemic) [Example 63]", "human NK2 receptor (Homo sapiens, UniProt P21452)", 8.58),
    ("CN(C(=O)Cc1ccc(F)cc1)[C@H]1CN(C(=O)C2CCN(C(=O)C3(C)CC3)CC2)C[C@@H]1c1ccc(Cl)c(Cl)c1 (racemic) [Example 101]", "human NK2 receptor (Homo sapiens, UniProt P21452)", 7.79),
    ("COc1ccc(C(=O)N(C)[C@H]2CN(C(=O)C3CCN(CC4CC4)CC3)C[C@@H]2c2ccc(Cl)cc2)cc1C(F)(F)F (racemic) [Example 105]", "human NK2 receptor (Homo sapiens, UniProt P21452)", 9.10),
]

# ---- query compound ----
Give its pKi value. Item: COc1ccc(C(=O)N(C)[C@@H]2CN(C(=O)c3ccc4occc4c3)C[C@H]2c2ccc(Cl)c(Cl)c2)cc1C(F)(F)F (racemic) [Example 48]
8.27

---

For each of the compounds below, state its log10 of Ki.
- assay system: human NK2 receptor (Homo sapiens, UniProt P21452)
- method summary: [3H]SR48968 competition binding assay
- test context: [3H]SR48968 displacement, membranes of CHO cells stably expressing recombinant human NK2 receptor; Ki from IC50 by Cheng-Prussoff
In our notation, the value equals log10 of Ki in nM.

# compound, test readout, readout value
data = [
    ("CN(C(=O)c1ccc(Cl)c(C(F)(F)F)c1)[C@@H]1CN(C(=O)C2CCN(C(=O)C3(C)CC3)CC2)C[C@H]1c1ccc(Cl)cc1", "log10 of Ki", -0.10),
    ("CN(C(=O)c1ccc2c(c1)OC(F)(F)O2)[C@@H]1CN(C(=O)N2CCN(S(C)(=O)=O)CC2)C[C@H]1c1ccc(Cl)c(Cl)c1 (racemic)", "log10 of Ki", 0.31),
    ("CN(C(=O)c1ccc(Cl)c(C(F)(F)F)c1)[C@@H]1CN(C(=O)C2CCN(CC3CC3)CC2)C[C@H]1c1ccc(Cl)c(Cl)c1", "log10 of Ki", 1.97),
    ("CN(C(=O)c1ccc(F)c(C(F)(F)F)c1)[C@@H]1CN(C(=O)N2CCN(S(C)(=O)=O)CC2)C[C@H]1c1ccc(Cl)c(Cl)c1 (racemic)", "log10 of Ki", 0.56),
    ("CN(C(=O)c1ccc(OCC(F)(F)F)nc1)[C@@H]1CN(C(=O)c2ccc(C#N)cc2)C[C@H]1c1ccc(Cl)c(Cl)c1 (racemic)", "log10 of Ki", 1.07),
]

For the next question, use this compound.
Which log10 of Ki reading was recorded for the compound CCN1CCC(C(=O)N2C[C@H](c3ccc(Cl)cc3)[C@@H](N(C)C(=O)c3ccc(OC)c(C(F)(F)F)c3)C2)CC1 (racemic) ?
0.71

---

Record form. Attribute: pKi. Fill in for each entry.
- assay system: human NK2 receptor (Homo sapiens, UniProt P21452)
- method summary: [3H]SR48968 competition binding assay
- test context: [3H]SR48968 displacement, membranes of CHO cells stably expressing recombinant human NK2 receptor; Ki from IC50 by Cheng-Prussoff
Numbers only, as −log10 of the molar value.

In the examples that follow, each entry is paired with its recorded pKi.
# molecule, readout value
records = [
    ("CN(C(=O)Cc1ccc(F)cc1)C1CN(C(=O)C2CCN(CC3CC3)CC2)CC1c1ccc(Cl)c(Cl)c1 (racemic)", 7.57),
    ("CN(C(=O)c1cccc(C(F)(F)F)c1F)[C@@H]1CN(C(=O)N2CCN(S(C)(=O)=O)CC2)C[C@H]1c1ccc(Cl)c(Cl)c1 (racemic)", 8.33),
    ("CN(C(=O)c1ccc(Cl)c(C2CC2)c1)[C@H]1CN(C(=O)C2CCN(C(=O)C3(C)CC3)CC2)C[C@@H]1c1ccc(Cl)c(Cl)c1 [Example 175]", 7.38),
    ("CN(C(=O)c1cc(C(F)(F)F)ccn1)[C@H]1CN(C(=O)C2CCN(C(=O)C3(C)CC3)CC2)C[C@@H]1c1ccc(Cl)c(Cl)c1 (racemic)", 9.15),
]

Report pKi for every entry below.
1. CCOC(=O)N1CCC(C(=O)N2C[C@H](c3ccc(Cl)c(Cl)c3)[C@@H](N(C)C(=O)c3ccc(OC)c(C(F)(F)F)c3)C2)CC1 (racemic)
2. CN(C(=O)c1ccc(Cl)c(C(F)(F)F)c1)[C@H]1CN(C(=O)C2CCN(CC3CC3)CC2)C[C@@H]1c1ccc(Cl)c(Cl)c1 (racemic) [Example 164]
3. Cc1cncc(C(=O)N(C)[C@@H]2CN(C(=O)c3ccc(C#N)cc3)C[C@H]2c2ccc(Cl)c(Cl)c2)c1 (racemic)
4. CN(C(=O)c1ccc2occc2c1)[C@@H]1CN(C(=O)N2CCN(S(C)(=O)=O)CC2)C[C@H]1c1ccc(Cl)c(Cl)c1 (racemic)
5. CN(C(=O)c1ccc(Cl)c(C(F)(F)F)c1)[C@H]1CN(C(=O)C2CCN(C(=O)C3(C)CC3)CC2)C[C@@H]1c1ccc(Cl)c(Cl)c1 (racemic)
6. COc1ccc(C(=O)N(C)[C@H]2CN(C(=O)c3ccc(-c4nc(C)no4)cc3)C[C@@H]2c2ccc(Cl)c(Cl)c2)cc1C(F)(F)F (racemic)
7. COC1CCC(C(=O)N2C[C@H](c3ccc(Cl)c(Cl)c3)[C@@H](N(C)C(=O)Cc3ccc(F)cc3)C2)CC1 (mixture of isomers)
8. COc1ccc(C(=O)N(C)[C@H]2CN(C(=O)c3ccc(F)cc3)C[C@@H]2c2ccc(Cl)cc2)cc1C(F)(F)F (racemic)

1. 8.96
2. 9.30
3. 7.01
4. 7.99
5. 9.15
6. 8.85
7. 7.46
8. 7.75
